# Test system: HCC-38
# assay method text: relative cell number vs DMSO control (72 h) (% of DMSO); higher = less growth inhibition (more cells)
# assay conditions: sgRNA knockout: sgNT, 10000 nM
outcome measure: relative cell number
Just the number, please, no unit attached.

Past entries and their recorded results:
compound | assay target | outcome measure | observed result
CCOC(=O)CCNc1cc(N2CCc3ccccc3CC2)nc(-c2ccccn2)n1 | HCC-38 | relative cell number | 60.8
Nc1nc(OCc2cc(Br)cs2)c2[nH]cnc2n1 | HCC-38 | relative cell number | 81.9
O=[N+]([O-])c1ccc(O)c2ncccc12 | HCC-38 | relative cell number | 45.9
O=C1c2c(O)ccc(O)c2C(=O)c2c(NCCNCCO)ccc(NCCNCCO)c21 | HCC-38 | relative cell number | 7.21
Cn1nnc2c(C(N)=O)ncn2c1=O [Temozolomide] | HCC-38 | relative cell number | 137
CCCc1nn(C)c2c(=O)[nH]c(-c3cc(S(=O)(=O)N4CCN(C)CC4)ccc3OCC)nc12 | HCC-38 | relative cell number | 124

input: API: value(readout= relative cell number, system= HCC-38, query= Cc1cc2c(F)c(Oc3ncnn4cc(OC[C@@H](C)O)c(C)c34)ccc2[nH]1 )
output: 84.1

input: Okay, and COc1cc([C@@H]2c3cc4c(cc3[C@@H](O[C@@H]3O[C@@H]5CO[C@@H](c6cccs6)O[C@H]5[C@H](O)[C@H]3O)[C@H]3COC(=O)[C@H]23)OCO4)cc(OC)c1O [Teniposide] ?
output: 13.4

input: Okay, and N.N.[Cl][Pt][Cl] [Cisplatin] ?
output: 93.4

input: Okay, and COc1cc2c(Oc3ccc4[nH]c(C)cc4c3F)ncnc2cc1OCCCN1CCCC1 ?
output: 9.73

input: Okay, and Cc1ccc(F)c(NC(=O)Nc2ccc(-c3cccc4[nH]nc(N)c34)cc2)c1 ?
output: 55.4

input: Okay, and O=P1(NCCCl)OCCCN1CCCl (configuration not stated) [Ifosfamide] ?
output: 100

input: Okay, and COc1cc(C(=O)N2CCC(N3CCN(C)CC3)CC2)ccc1Nc1ncc2c(n1)N(C)c1ccccc1C(=O)N2C ?
output: 42.4
